Source of measurements: patent US11230540B2

biological target: UniProt P30518; test: Cellular in vitro assay for vasopressin receptor activity, V2 receptor cell line (CRE-luciferase); settings: CHO cell line transfected with human V2 receptor; [Arg8]-vasopressin at EC50 concentration; read-out: IC50 hV2
Sequence (P30518 whole entry): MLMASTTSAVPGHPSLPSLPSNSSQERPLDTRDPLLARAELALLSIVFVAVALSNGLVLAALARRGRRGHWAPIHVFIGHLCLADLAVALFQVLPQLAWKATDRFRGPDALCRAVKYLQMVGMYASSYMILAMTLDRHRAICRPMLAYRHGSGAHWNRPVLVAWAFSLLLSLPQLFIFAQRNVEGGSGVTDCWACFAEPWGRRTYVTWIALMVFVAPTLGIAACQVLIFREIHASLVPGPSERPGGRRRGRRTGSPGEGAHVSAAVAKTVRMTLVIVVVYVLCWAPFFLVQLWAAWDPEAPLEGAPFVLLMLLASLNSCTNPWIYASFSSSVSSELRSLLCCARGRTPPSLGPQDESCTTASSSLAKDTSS
Counter-ions that a name gives are not always drawn.
readout_label: IC50 (nM)
# value in nM; strip the unit string

INPUT: What does the record list as IC50 for CON(C)C(=O)c1nc(Cn2nc(-c3ccc(Cl)cc3)n(C[C@H](O)C(F)(F)F)c2=O)nn1-c1ccccc1Cl ?
OUTPUT: 8.63

INPUT: What does the record list as IC50 for CC1(O)CCN(C(=O)c2nc(Cn3nc(-c4ccc(Cl)cc4)n(C[C@H](O)C(F)(F)F)c3=O)nn2-c2ncccc2OC(F)(F)F)C1 (stereo partly shown) ?
OUTPUT: 1130

INPUT: What does the record list as IC50 for O=C(c1nc(Cn2nc(-c3ccc(Cl)cc3)n(C[C@H](O)C(F)(F)F)c2=O)nn1CCC(F)(F)F)N1CCNC(C(F)(F)F)C1 (mixture of isomers) ?
OUTPUT: 170

INPUT: What does the record list as IC50 for O=C1CN(C(=O)c2nc(Cn3nc(-c4ccc(Cl)cc4)n(C[C@H](O)C(F)(F)F)c3=O)nn2-c2ccccc2Cl)CCN1 ?
OUTPUT: 34

INPUT: What does the record list as IC50 for O=C(NCCC(F)(F)F)c1nc(Cn2nc(-c3ccc(Cl)cc3)n(C[C@H](O)C(F)(F)F)c2=O)nn1-c1ncccc1C(F)(F)F ?
OUTPUT: 83.5

INPUT: What does the record list as IC50 for O=C(NCC(F)(F)F)c1nc(Cn2nc(-c3ccc(Cl)cc3)n(C[C@H](O)C(F)(F)F)c2=O)nn1-c1cccc(F)c1 ?
OUTPUT: 11.4

INPUT: What does the record list as IC50 for CNC(=O)c1nc(Cn2nc(-c3ccc(Cl)cc3)n(C[C@H](O)C(F)(F)F)c2=O)nn1-c1ncccc1OC ?
OUTPUT: 22.5

INPUT: What does the record list as IC50 for O=C(NC1CC1)c1nc(Cn2nc(-c3ccc(Cl)cc3)n(C[C@H](O)C(F)(F)F)c2=O)nn1-c1ccccc1Cl ?
OUTPUT: 9.77

INPUT: What does the record list as IC50 for CC1(O)CCN(C(=O)c2nc(Cn3nc(-c4ccc(Cl)cc4)n(C[C@H](O)C(F)(F)F)c3=O)nn2CCC(F)(F)F)C1 (mixture of isomers) [Example 22] ?
OUTPUT: 435

INPUT: What does the record list as IC50 for CC1(O)CCN(C(=O)c2nc(Cn3nc(-c4ccc(Cl)cc4)n(C[C@H](O)C(F)(F)F)c3=O)nn2CCC(F)(F)F)C1 (single isomer, unassigned) [Example 23] ?
OUTPUT: 245

INPUT: What does the record list as IC50 for CC(C)(N)CNC(=O)c1nc(Cn2nc(-c3ccc(Cl)cc3)n(C[C@H](O)C(F)(F)F)c2=O)nn1-c1cnccc1Cl ?
OUTPUT: 410

INPUT: What does the record list as IC50 for CC1(CNC(=O)c2nc(Cn3nc(-c4ccc(Cl)cc4)n(C[C@H](O)C(F)(F)F)c3=O)nn2-c2cnccc2Cl)COC1 ?
OUTPUT: 98.5

INPUT: What does the record list as IC50 for O=C(NCC(F)(F)F)c1nc(Cn2nc(-c3ccc(Cl)cc3)n(C[C@H](O)C(F)(F)F)c2=O)nn1-c1cccnc1Cl ?
OUTPUT: 64

INPUT: What does the record list as IC50 for CC(C)(N)CNC(=O)c1nc(Cn2nc(-c3ccc(Cl)cc3)n(C[C@H](O)C(F)(F)F)c2=O)nn1-c1ncccc1C(F)(F)F ?
OUTPUT: 1470

INPUT: What does the record list as IC50 for O=CN1CCC(NC(=O)c2nc(Cn3nc(-c4ccc(Cl)cc4)n(C[C@H](O)C(F)(F)F)c3=O)nn2-c2cccnc2Cl)C1 (mixture of isomers) ?
OUTPUT: 315

INPUT: What does the record list as IC50 for NC(CNC(=O)c1nc(Cn2nc(-c3ccc(Cl)cc3)n(C[C@H](O)C(F)(F)F)c2=O)nn1-c1ncccc1C(F)(F)F)C(F)(F)F (mixture of isomers) [Example 51, hydrochloride] ?
OUTPUT: 1190

INPUT: What does the record list as IC50 for CC1(O)CCN(C(=O)c2nc(Cn3nc(-c4ccc(Cl)cc4)n(C[C@H](O)C(F)(F)F)c3=O)nn2-c2ncccc2C(F)(F)F)C1 (stereo partly shown) ?
OUTPUT: 440

INPUT: What does the record list as IC50 for CON(C)C(=O)c1nc(Cn2nc(-c3ccc(Cl)cc3)n(C[C@H](O)C(F)(F)F)c2=O)nn1-c1cccc(Cl)c1 ?
OUTPUT: 3.66

INPUT: What does the record list as IC50 for O=C(NC1CC1)c1nc(Cn2nc(-c3ccc(Cl)cc3)n(C[C@H](O)C(F)(F)F)c2=O)nn1-c1cccc(F)c1 ?
OUTPUT: 28.1

INPUT: What does the record list as IC50 for O=C(NCC1(O)CC1)c1nc(Cn2nc(-c3ccc(Cl)cc3)n(C[C@H](O)C(F)(F)F)c2=O)nn1-c1ncccc1C(F)(F)F ?
OUTPUT: 72.5

INPUT: What does the record list as IC50 for CC(C)(N)CNC(=O)c1nc(Cn2nc(-c3ccc(Cl)cc3)n(C[C@H](O)C(F)(F)F)c2=O)nn1-c1ncccc1OC(F)(F)F ?
OUTPUT: 470

INPUT: What does the record list as IC50 for NNC(=O)c1nc(Cn2nc(-c3ccc(Cl)cc3)n(C[C@H](O)C(F)(F)F)c2=O)nn1-c1ncccc1Cl ?
OUTPUT: 94.5

INPUT: What does the record list as IC50 for CC1(C)CN(C(=O)c2nc(Cn3nc(-c4ccc(Cl)cc4)n(C[C@H](O)C(F)(F)F)c3=O)nn2-c2ncccc2C(F)(F)F)CCO1 ?
OUTPUT: 235

INPUT: What does the record list as IC50 for CC(C)(C)OC(=O)N1CCN(C(=O)c2nc(Cn3nc(-c4ccc(Cl)cc4)n(C[C@H](O)C(F)(F)F)c3=O)nn2-c2cccc(F)c2)CC1 ?
OUTPUT: 98.7

INPUT: What does the record list as IC50 for NNC(=O)c1nc(Cn2nc(-c3ccc(Cl)cc3)n(C[C@H](O)C(F)(F)F)c2=O)nn1-c1ncccc1OC(F)(F)F ?
OUTPUT: 1640
